Data credit: patent US20130005646A1

- experimental-system: T1, human amylin 3(a) receptor (human calcitonin receptor + RAMP-3) (human, UniProt P30988 25-474; O60896 24-148)
- T1 sequence (looked up) 1: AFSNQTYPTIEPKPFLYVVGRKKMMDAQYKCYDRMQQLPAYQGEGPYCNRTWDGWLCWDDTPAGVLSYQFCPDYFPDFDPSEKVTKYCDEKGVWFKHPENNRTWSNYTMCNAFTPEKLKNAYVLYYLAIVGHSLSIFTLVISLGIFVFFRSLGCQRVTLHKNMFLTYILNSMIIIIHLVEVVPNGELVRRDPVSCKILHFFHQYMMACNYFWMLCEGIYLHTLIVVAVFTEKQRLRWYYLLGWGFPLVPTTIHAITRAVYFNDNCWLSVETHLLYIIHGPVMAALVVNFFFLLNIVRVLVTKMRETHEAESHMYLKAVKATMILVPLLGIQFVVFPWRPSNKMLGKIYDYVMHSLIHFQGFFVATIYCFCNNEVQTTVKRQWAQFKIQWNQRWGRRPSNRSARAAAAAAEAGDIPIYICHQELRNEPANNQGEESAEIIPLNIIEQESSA
- T1 sequence (looked up) 2: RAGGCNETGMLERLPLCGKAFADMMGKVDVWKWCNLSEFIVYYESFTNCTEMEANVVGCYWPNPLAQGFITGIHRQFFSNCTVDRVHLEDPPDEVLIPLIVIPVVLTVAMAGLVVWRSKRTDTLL
- assay: cell-based or functional assay
Starred links: 1 amine or outer side, 2 acyl side, 3 side chain; linkers in the order of their positions; H or OH if unused. Positions of bridges follow the written chain, without caps; N, C: chain ends. Groups on a side chain read outwards from the residue. No end group written: not given here. *: point of attachment. C20 diacid = O=C(O)CCCCCCCCCCCCCCCCCCC(=O)*; γGlu = O=C(O)[C@H](CCC(=O)[*:2])N[*:1]; AEEA = NCCOCCOCC(=O)O
quantity-name: Amylin receptor human EC50 (nM)

Example binders with recorded Amylin receptor human EC50:
>  <binder>
{C20 diacid-γGlu}-KCNTATCATQRLAEFLHHSSNNFGPILPPTNVGSKTY-NH2 (disulfide 2-7; not fully specified; printed as N-alpha-[(S)-4-Carboxy-4-(19-carboxynonadecanoylamino)butyryl]-[Glu14,His17,Lys35]-pramlintide) [N-alpha-[(S)-4-Carboxy-4-(19-carboxynonadecanoylamino)butyryl]-[Glu14,His17,Lys35]-pramlintide]

>  <units-label>
nM

>  <Amylin receptor human EC50>
0.134

$$$$
>  <binder>
{C20 diacid-γGlu}-HCNTATCATQRLAEFLHHSSNNFGPILPPTNVGSNTP-NH2 (disulfide 2-7; not fully specified; printed as N-alpha-[(S)-4-Carboxy-4-(19-carboxynonadecanoylamino)butyryl]-[His1,Glu14,His17,Pro37]-pramlintide) [N-alpha-[(S)-4-Carboxy-4-(19-carboxynonadecanoylamino)butyryl]-[His1,Glu14,His17,Pro37]-pramlintide]

>  <units-label>
nM

>  <Amylin receptor human EC50>
0.0925

$$$$
>  <binder>
{C20 diacid-γGlu}-KCNTATCATQRLAEFLHHSSNNFGPILPPTNVGSNHY-NH2 (disulfide 2-7; not fully specified; printed as N-alpha-[(S)-4-Carboxy-4-(19-carboxynonadecanoylamino)butyryl]-[Glu14,His17,His36]-pramlintide) [N-alpha-[(S)-4-Carboxy-4-(19-carboxynonadecanoylamino)butyryl]-[Glu14,His17,His36]-pramlintide]

>  <units-label>
nM

>  <Amylin receptor human EC50>
0.382

$$$$
>  <binder>
{C20 diacid-γGlu}-HCNTATCATQRLAEFLHHSSNNFGPILPPTNVGSNTY-NH2 (disulfide 2-7; not fully specified; printed as N-alpha-[(S)-4-Carboxy-4-(19-carboxynonadecanoylamino)butyryl]-[His1,Glu14,His17]-pramlintide) [N-alpha-[(S)-4-Carboxy-4-(19-carboxynonadecanoylamino)butyryl]-[His1,Glu14,His17]-pramlintide]

>  <units-label>
nM

>  <Amylin receptor human EC50>
0.131

$$$$

(a) RCNTATCATQRLAEFLHRSSK([AEEA-AEEA-γGlu-19‑carboxyheptadecanoyl])NFGPILPPTNVGSNTY-NH2 (disulfide 2-7)
(b) KCNTATCATQRLAEFLVHSSK([AEEA-AEEA-γGlu-19‑carboxyheptadecanoyl])NFGPILPPTNVGSHTY-NH2 (disulfide 2-7)
Inquiry: Which item exceeds the other in Amylin receptor human EC50, a or b ? Answer = label.
Reply text: b
(b: 0.999 nM, a: 0.0994 nM)
